- PROTOCOL DESCRIPTION: Human HepG2 cell viability assay in 384 well format
- Type: toxicity, cell-based
- Set-up: dose 125 nL, time 70.5 hour; concentration not given beside the values
- CONDITION SUMMARY: HepG2 cells, read-out: Inhibition
ENDPOINT: cytotoxicity at 70.5 h (%)
Use % as the unit, but write only the number.

COMPOUND	REPORTED MEASUREMENT
CN(CC1CCOC1)c1ccc(Br)cn1 (centres undefined)	29.9
COc1ncccc1CN1CCC2(CCCN2S(C)(=O)=O)CC1	-7.14
CCOc1cccc(C(=O)N(CCC#N)Cc2ccccn2)c1	-0.366
CSCC1CCN(C(=O)c2ccccc2NCc2cccnc2)C1 (centres undefined)	-8.12
CCN(C)Cc1cccc(CNC(=O)CSCc2ccccn2)c1	-15.2
Cn1ccc(C(=O)N2CCC3(CC2)CC(Nc2cnccn2)CO3)n1 (centres undefined)	-7

# cytotoxicity at 70.5 h lookup, item O=S(=O)(C1CC1)N1CCOCC2(CCN(c3ccccn3)C2)C1 (centres undefined)
36.2

# cytotoxicity at 70.5 h lookup, item CCCc1cncnc1N1CCC(NCCc2nc(O)cc(O)n2)CC1
-7.02

# cytotoxicity at 70.5 h lookup, item CC(C)CCn1[nH]c(CNc2ccc(Cl)cc2)nc1=O
0.442

# cytotoxicity at 70.5 h lookup, item Cn1ccc(C(=O)N2CCN(CCc3ccccc3)CC2)cc1=O
-1.11

# cytotoxicity at 70.5 h lookup, item CCn1nccc1CNc1[nH]cnc2nc(C)nc1-2
27.9

# cytotoxicity at 70.5 h lookup, item O=C(Nc1cccn(Cc2ccc(F)cc2)c1=O)c1csnn1
-0.164

# cytotoxicity at 70.5 h lookup, item CN(C)S(=O)(=O)N1CCC(c2nnc(C(F)(F)F)o2)CC1
30.8

###

- PROTOCOL DESCRIPTION: Human HepG2 cell viability assay in 384 well format
- Format: toxicity, cell-based
- Set-up: dose 125 nL, time 70.5 hour; concentration not given beside the values
- CONDITION SUMMARY: HepG2 cells, read-out: Inhibition
ENDPOINT: cytotoxicity at 70.5 h (%)
Use % as the unit, but write only the number.

COMPOUND	REPORTED MEASUREMENT
Cc1cc(O)n2nc(C3CCN(C(=O)c4ccccn4)CC3)cc2n1	18.6
O[C@@]1(c2ccccn2)CC[C@H]2CN(Cc3cccc(Cl)c3Cl)C[C@H]21	-10.2
CC1COCCN1c1ncnc2sccc12 (configuration not stated)	6.87
Cn1c(=O)c2cc(C(=O)NCc3ccccn3)ccc2n(C)c1=O	-4.37
O=C(Cc1ccc2c(c1)OCCO2)NC1CCCCC1	-1.15

Kindly consider the entry below.
# cytotoxicity at 70.5 h lookup, item CCc1cc(C(F)(F)F)n2nc(C3CCCN3C(=O)COC)cc2n1 (configuration not stated)
-4.23

###

- PROTOCOL DESCRIPTION: Human HepG2 cell viability assay in 384 well format
- Format: toxicity, cell-based
- Design: dose 125 nL, time 70.5 hour; concentration not given beside the values
- CONDITION SUMMARY: HepG2 cells, read-out: Inhibition
ENDPOINT: cytotoxicity at 70.5 h (%)
Use % as the unit, but write only the number.

Sample answers from the record:
COMPOUND	cytotoxicity at 70.5 h [%]
O=C(CCc1ccc(C(F)(F)F)cc1)N1CCCS1(=O)=O	-4.91
CCn1cc(CN(C)S(=O)(=O)c2ccc(Cl)cc2)cn1	108
Cc1ccc(Nc2nccc(C3CCN(C(=O)CN)C3)n2)nc1 (configuration not stated)	-5.12

# cytotoxicity at 70.5 h lookup, item CCn1ccnc1CN1CCN(Cc2ccc(C)o2)[C@@H]2CS(=O)(=O)C[C@@H]21
-4.31

# cytotoxicity at 70.5 h lookup, item Cn1ccc(CN2CCC(CN3CCOCC3)CC2)cc1=O
-7.39

# cytotoxicity at 70.5 h lookup, item COc1ccc(C)cc1CN1CCCC1c1noc(C2CC2)n1 (configuration not stated)
-1.93

# cytotoxicity at 70.5 h lookup, item COCCN(Cc1ccc(C)cc1)Cc1c[nH]cn1
-7.56

# cytotoxicity at 70.5 h lookup, item COc1ccc(CN2C[C@@H]3CN(C(=O)c4ccsc4)C[C@@H]3C2=O)cc1
-4.99
